- SYSTEM NAME: SARS-CoV-2 spike S1, WT, His-tag (SARS-CoV-2 (WT), UniProt P0DTC2 16-685)
- ASSAY EXPLANATION: BLI
- CONDITION NOTES: protein: recombinant; tags: His

| BINDER | binding result |
| --- | --- |
| Aptamer-2 (ssDNA) DNA: ATCCAGAGTGACGCAGCAATTACCGATGGCTTGTTTGTAATGTAGGGTTCCGTCGGATTGGACACGGTGGCTTAGT | binds |
| RBD-PB6 (XNA, 2'-F-modified RNA) RNA: GGGGCCACCAACGACAUUUGUAAUUCCUGGACCGAUACUUCCGUCAGGACAGAGGUUGAUAUAAAUAGUGCCCAUGGAUCC | binds |
| Aptamer-1 (ssDNA) DNA: ATCCAGAGTGACGCAGCATCGAGTGGCTTGTTTGTAATGTAGGGTTCCGGTCGTGGGTTGGACACGGTGGCTTAGT | binds |
